assay: amyloid nucleation score (Sup35N fusion, yeast selection) (log enrichment); library NNK1; higher = more nucleation; inactive = no reads after selection;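 further: zero at mode of non-aggregating sequences after 7 days selection at 30°C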
assayEndpoint: amyloid nucleation score
# answer = number (no unit)

A selection of reference data follows.
VCLANGHWATHMHYIFHYLS: -0.915
YEPEGIQSIWRCSAVRHAKA: -0.286
FCNNAPRQEWPILN: -1.31
FYGCFRVHCVISMLGWR: 0.109
PYSSDAKMCHLLETASNLLV: 0.577

Item under review: TVMFCRQWVFNCVFFIDIVK . Reported amyloid nucleation score?
1.31

// next record AYSCDLVELRVCAVSVWEEW
1.42

// next record TCFMLKWIKQRLIDGSVKGR
0.512

// next record FLVLND
0.273

// next record AYLNREFGFLFTLNFGCGFF
-0.636

// next record LLFLSMMVSASCC
1.09

// next record MFGQWMAPHQTRFGSGQFGW
-0.038

// next record CTTNIPAKLHLNSVVRVVRA
-1.27

// next record LMYQSFRLTGSYVVIFLYES
-0.543

// next record IPMPMLRRKKTGYLLSTGSA
0.532

// next record FVLSIFYIWGKSPSRTYWMN
-0.322

====

# reported amyloid nucleation score; entries follow
assay: amyloid nucleation score (Sup35N fusion, yeast selection) (log enrichment); library NNK1; higher = more nucleation; inactive = no reads after selection
# answer = number (no unit)

A selection of reference data follows.
DFTCIRMNQSFVIRAFGALC: 3.75
VGGNPN: 1.19
SYMGSNSSYYCMRGWGRTWY: 2.14
YKFCVILSNGRQCVMALVRP: 0.286
ACDVNSCVHCMSTVKFFPRP: 4.2
KWCDMRGYGQRFRCGRMVHV: -0.727
NDTMWMSSGLSPCVSSPSLG: -0.252
IRKRDFGYKSLFPNGTAMIH: -0.83
SLSFSCSVKV: -0.149
GFPRCVWFNSSVIQESSFFV: 0.571

Item under review: MILHLDVSISIVLD . Reported amyloid nucleation score?
1.58

// next record ENIPARRLKCPFNTP
-0.511

// next record LVWGFFSHRM
2.37

// next record MVTTWVHGYVWRANGQTLFR
1.28

// next record YWGLQPFMIY
0.272

// next record ACETWVVAIDMVSRSPCRCC
0.113

// next record CVLPYCS
0.297

// next record CPSIILPFVYRNGSVTMVPF
0.927

====

assay: amyloid nucleation score (Sup35N fusion, yeast selection) (log enrichment); library NNK1; higher = more nucleation; inactive = no reads after selection
# reported amyloid nucleation score; entries follow

THFRCH: 0.762
KSWQFMSRGVSGWFWRLVPQ: 0.743
SMNHVFYYFIRMWTSM: 0.156

Consider the record given below.
Item under review: EAGHSIFNGNWRGID . Reported amyloid nucleation score?
-0.536

====

test: amyloid nucleation score (Sup35N fusion, yeast selection) (log enrichment); library NNK2; higher = more nucleation; inactive = no reads after selection
assayEndpoint: amyloid nucleation score

ICWPMGICLNNSDSVLLGEC: inactive
VSGLPN: inactive
NKLLHHFILGAEESLLEIMY: inactive

====

assay: amyloid nucleation score (Sup35N fusion, yeast selection) (log enrichment); library NNK1; higher = more nucleation; inactive = no reads after selection
assayEndpoint: amyloid nucleation score

WFSDMTAFLC: inactive
YCWRVSHLGNGRYRLSLSFG: inactive
YTMFLPFRLR: 0.376
HLYLFSGFRAVSESEVRGAK: 2.6
CCHYDHKSGVNSLRRKTNVW: 1.57
YDPPTWIHNAMGG: 0.342

Item under review: QNMLDWLKLGLYYHNFQAWV . Reported amyloid nucleation score?
-0.94

====

test: amyloid nucleation score (Sup35N fusion, yeast selection) (log enrichment); library NNK2; higher = more nucleation; inactive = no reads after selection
assayEndpoint: amyloid nucleation score

A selection of reference data follows.
PGILRTFVETEYCITI: inactive
VVNKLF: inactive
FYFVSSRSIDGVFFRKILNS: inactive
MIGKRGVFS: inactive

Consider the record given below.
Item under review: DSIARYCVTYLWCNLHLLVK . Reported amyloid nucleation score?
4.01

====

test: amyloid nucleation score (Sup35N fusion, yeast selection) (log enrichment); library NNK2; higher = more nucleation; inactive = no reads after selection
assayEndpoint: amyloid nucleation score

FGYYQLYNDQGGYYPMSSAS: inactive
SCRRADFGMAVVHSLLVCGE: 0.709
IIHDEVSLPWI: inactive
TVYIYSLVSRNKEVMFFTD: inactive

====

assay: amyloid nucleation score (Sup35N fusion, yeast selection) (log enrichment); library NNK3; higher = more nucleation; inactive = no reads after selection
assayEndpoint: amyloid nucleation score

NGNFSVRFSVKS: inactive
NVALRAGSREG: inactive
TEESIDVDCVILVTNCHFRC: 0.804

====

assay: amyloid nucleation score (Sup35N fusion, yeast selection) (log enrichment); library NNK3; higher = more nucleation; inactive = no reads after selection
assayEndpoint: amyloid nucleation score

A selection of reference data follows.
KSTSFTYFLLNIRLMGYCPC: 0.725
LIFALRFSLSVSCSCAKCFR: inactive
TQRRFMYMAFNQYMSQSSSR: inactive
FRCFYGTRSWRKECGESAFL: inactive
SLEHHQIIYVLARPACL: inactive

Item under review: SLHWVYYIINYTVALTGVLL . Reported amyloid nucleation score?
inactive

// next record SNIDCLFNNVLCWIVFEWC
1.07

// next record CELYHMNRDF
inactive

// next record SLASRHIGHLLISFLLGYGA
inactive

// next record FEWFQCIYA
inactive

// next record CGTCSDYGYHFGCTDRGVDC
inactive

// next record GGHLLGHIASVFMEFCALQC
inactive

// next record GNALSAFPVGSFRKVVRCHG
inactive

// next record SSGLMLWFDWLLVWRGCRLR
inactive

// next record LCNSVAYPDSGTVRLLKREL
0.005

// next record TSVLSTGCYTRTVTNVNGSI
inactive

// next record LRLGRTVLYPIVLWLPYCFD
inactive

// next record GGNICPIRPLSRKEWELGRH
-0.566

====

experiment: amyloid nucleation score (Sup35N fusion, yeast selection) (log enrichment); library NNK1; higher = more nucleation; inactive = no reads after selection
assayEndpoint: amyloid nucleation score

RSPIGGLLWINLRSPACEWG: inactive
NFLLTRPAAHELC: inactive
ICLESNRFI: inactive

====

assay: amyloid nucleation score (Sup35N fusion, yeast selection) (log enrichment); library NNK2; higher = more nucleation; inactive = no reads after selection
assayEndpoint: amyloid nucleation score

A selection of reference data follows.
LSYRVRCIRMNMLSSALGTM: inactive
NPALVFIHA: inactive
FCGFMGTAPHMRPYVMPWLR: 0.816
ARKISV: inactive
LCIPSVTTDS: inactive
CTSVKQNDLKGSLIN: inactive

Item under review: LCILVFRGASRSLFSGGVFT . Reported amyloid nucleation score?
-0.199

// next record GCLRGIGIGGCVGCLRRILF
inactive

// next record AFLRLRWNSNPVISGTRNRR
0.777

// next record AAFVAYLAYFLMFSSCFCIY
inactive

====

experiment: amyloid nucleation score (Sup35N fusion, yeast selection) (log enrichment); library NNK1; higher = more nucleation; inactive = no reads after selection
Please mark met if the recorded amyloid nucleation score is equal to or greater than 0.2, and not met if it falls below.

Some solved entries appear below for comparison.
ELYSDHIMTWM: met
YGCSVYTVCMF: met
GIGAGYKFNDTVFSEGCSSG: met
MTDMVVSCCMPAEVQRRSGA: not met
LFGLYFICSLKAISSYTERL: met

// inclusive: amyloid nucleation score at least 0.2? input: IMRYLGVKKVE
not met

// next record TVEGSRYFRSSLYHSARSHW
met

// next record NVYKFCDRAGLCAVGYYLGT
met

// next record RGELAVRKPG
met

// next record DKNGIPYISCEYNQM
not met

// next record NASCFADKPLLCSLTGRVMD
not met

// next record AWNTGSIARHSFSRIVSTCD
not met

// next record QNLYVLDSYSLLNNFVSCII
not met

// next record SWMSRKEENSGLILVAVYLV
met

// next record PVGNPLD
not met

// next record RLFALLWNDFDRSGVAMPVL
not met

// next record AYLVFDGQ
not met

// next record AGMDVDSLYNRYGYGLEVG
not met

// next record VSYNVRIGWAVYN
met

// next record SYCTGLFWEKRVVIMLVSQV
not met

// next record CLFFLPQGLKRYE
not met

// next record CVGRQLAGKAYLVLRWRECD
not met

// next record FSVMKCWPSPRPVNRFLIYA
not met

// next record VVNLWTQADIMRSSCRLKHV
not met

// next record RFYKCVLDVNTHLV
met

Cited source: the supplement of paper PMC12042874
